test-system: Aldo-keto reductase family 1 member C2 (Homo sapiens) (UniProt P52895)
Sequence (P52895 whole entry): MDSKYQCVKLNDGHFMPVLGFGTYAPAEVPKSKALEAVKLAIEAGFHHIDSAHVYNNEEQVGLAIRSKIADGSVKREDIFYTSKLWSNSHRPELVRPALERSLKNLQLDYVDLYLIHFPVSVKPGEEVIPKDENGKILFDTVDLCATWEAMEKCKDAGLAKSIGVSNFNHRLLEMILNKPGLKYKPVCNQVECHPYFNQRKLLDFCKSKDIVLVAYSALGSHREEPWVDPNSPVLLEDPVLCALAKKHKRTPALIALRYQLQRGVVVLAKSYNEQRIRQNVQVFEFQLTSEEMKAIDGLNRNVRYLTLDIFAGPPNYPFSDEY
test-method-notes: Inhibition of recombinant AKR1C2 (unknown origin) assessed as decrease in oxidation of 1-acenaphthenol substrate at 100 uM by spectrophotometric analysis
Active and inactive are the calls of the source. The calls are words filed in the database; no cut-off is given here.
reported-endpoint: inhibition

>>> observed("CC(=O)NS(=O)(=O)c1ccc(/C=C(/C(=O)O)c2ccc(S(C)(=O)=O)cc2)cc1")
"10.6%"
>>> observed("CS(=O)(=O)c1ccc(/C(=C\\c2ccc(O)cc2)C(=O)O)cc1")
"inactive"
>>> observed("CS(=O)(=O)c1ccc(/C=C(/C(=O)O)c2ccccc2)cc1")
"61.4%"
>>> observed("CS(=O)(=O)c1ccc(/C=C(/C(=O)O)c2ccc(Cl)cc2)cc1")
"63.4%"
>>> observed("COc1ccc(/C=C(/C(=O)O)c2cc(OC)c(OC)c(OC)c2)cc1OC(C)=O")
"3.2%"
>>> observed("CS(=O)(=O)c1ccc(/C(=C\\c2cccc(Cl)c2)C(=O)O)cc1")
"43%"
>>> observed("COc1cc(/C(=C\\c2ccc3ccccc3c2)C(=O)O)cc(OC)c1OC")
"15.9%"
>>> observed("O=C(O)/C(=C/c1ccccc1)c1ccccc1")
"47.5%"
>>> observed("CS(=O)(=O)c1ccc(/C=C(/C(=O)O)c2ccc(S(C)(=O)=O)cc2)cc1")
"inactive"
>>> observed("CSc1ccc(/C=C(/C(=O)O)c2ccccc2)cc1")
"59.1%"
>>> observed("Cc1ccc(/C=C(/C(=O)O)c2ccc(S(C)(=O)=O)cc2)cc1")
"1.1%"

* * *

test-system: Aldo-keto reductase family 1 member C1 (Homo sapiens) (UniProt Q04828)
Sequence (Q04828 whole entry): as the sequence (P52895 whole entry) above, with V38T, H47R, V54L, S87C, M151V, H170R, L172Q counted along it
test-method-notes: Inhibition of human recombinant AKR1C1 expressed in Escherichia coli assessed as decrease in oxidation of 1-acenaphthenol substrate at 100 uM by spectrophotometric analysis
Active and inactive are the calls of the source. No cut-off for these calls is given here.
reported-endpoint: inhibition

>>> observed("CC(=O)NS(=O)(=O)c1ccc(/C=C(/C(=O)O)c2ccccc2)cc1")
"97.8%"
>>> observed("COc1ccc(/C=C(/C(=O)O)c2ccc3ccccc3c2)cc1OC")
"9.7%"
>>> observed("CS(=O)(=O)c1ccc(/C=C(/C(=O)O)c2ccc3c(c2)OCO3)cc1")
"45.2%"
>>> observed("CC(=O)NS(=O)(=O)c1ccc(/C=C(/C(=O)O)c2ccc(S(C)(=O)=O)cc2)cc1")
"5.9%"
>>> observed("COc1ccc(/C=C(/C(=O)O)c2ccc(S(C)(=O)=O)cc2)cc1")
"inactive"
>>> observed("COc1ccc(/C=C(/C(=O)O)c2cc(OC)c(OC)c(OC)c2)cc1F")
"-5.2%"
>>> observed("CS(=O)(=O)c1ccc(/C(=C\\c2cccc(O)c2)C(=O)O)cc1")
"inactive"
>>> observed("CSc1ccc(/C=C(/C(=O)O)c2ccc(Cl)cc2)cc1")
"88.1%"
>>> observed("CS(=O)(=O)c1ccc(/C(=C\\c2ccc(C(F)(F)F)cc2)C(=O)O)cc1")
"3.5%"
>>> observed("CS(=O)(=O)c1ccc(/C(=C\\c2ccc(O)cc2)C(=O)O)cc1")
"inactive"

* * *

test-system: Aldo-keto reductase family 1 member C3 (Homo sapiens, UniProt P42330)
Sequence (P42330 whole entry): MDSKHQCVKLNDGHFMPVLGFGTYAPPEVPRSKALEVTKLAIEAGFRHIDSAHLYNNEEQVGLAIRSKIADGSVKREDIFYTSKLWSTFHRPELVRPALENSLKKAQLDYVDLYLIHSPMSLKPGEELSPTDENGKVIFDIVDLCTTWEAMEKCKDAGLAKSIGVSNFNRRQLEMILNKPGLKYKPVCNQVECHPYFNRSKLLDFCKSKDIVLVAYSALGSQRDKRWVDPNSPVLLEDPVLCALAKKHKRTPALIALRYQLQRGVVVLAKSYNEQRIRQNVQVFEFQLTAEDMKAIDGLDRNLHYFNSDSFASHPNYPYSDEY
test-method-notes: Inhibition of recombinant AKR1C3 (unknown origin) assessed as decrease in oxidation of 1-acenaphthenol substrate by spectrophotometric analysis
pIC50: −log10 of the molar value.
Catalogue of molecules with associated pIC50
reported-endpoint: pIC50

>>> observed("CC(=O)O[C@]1(C(C)=O)CC[C@H]2[C@@H]3C[C@H](C)C4=CC(=O)CC[C@]4(C)[C@H]3CC[C@@]21C [MEDROXYPROGESTERONE ACETATE]")
6.52
>>> observed("CS(=O)(=O)c1ccc(/C(=C\\c2ccccc2)C(=O)O)cc1")
4.16
>>> observed("COc1ccc(/C=C(/C(=O)O)c2cccc3ccccc23)cc1OC")
3.89
>>> observed("CS(=O)(=O)c1ccc(/C(=C\\c2ccc(O)c(O)c2)C(=O)O)cc1")
4.48
>>> observed("CS(=O)(=O)c1ccc(/C(=C\\c2ccc(Br)cc2)C(=O)O)cc1")
5.31
>>> observed("CS(=O)(=O)c1ccc(/C=C(/C(=O)O)c2ccc(S(C)(=O)=O)cc2)cc1")
4.29
>>> observed("CSc1ccc(/C=C(/C(=O)O)c2ccccc2)cc1")
4.52
>>> observed("CS(=O)(=O)c1ccc(/C=C(/C(=O)O)c2ccccc2)cc1")
3.86
>>> observed("Cc1ccc(/C=C(/C(=O)O)c2ccc(S(C)(=O)=O)cc2)cc1")
4.87
>>> observed("COc1ccc(/C=C(/C(=O)O)c2ccc(S(C)(=O)=O)cc2)cc1")
4.43
